src = the nanobody polyreactivity screen of Harvey et al. (2022)

# Assay summary: yeast display, Sf9 membrane polyspecificity reagent, FACS + sequencing; frameworks hold sequencing errors
Reported property: polyreactivity (PSR sort gate)

# annotated cases, reported polyreactivity (PSR sort gate) shown
Inquiry: Please look up its polyreactivity (PSR sort gate): "QVQLVESGGGLVQAGGSLRLSCAASGSIFLTNAMGWYRQAPGKEREFVAAIDWGGTITYYADSVKGRFTISRDNAKNTVYLQMNSLKPEDTAVYYCAADPTYPYGYWGQGTQVTVSS"
Reply text: low polyreactivity

Inquiry: Cool, now "QVQLVESGGGIDQAGGSLRLRCAASGSIFAYYAMGWYRQAPGKERELVAAISWNGGRTYYADSVKGRFTISRDNAKNTVYLQMNSLKPEDTAVYYCNAVRWAIYDYWGQGTQVTLSS"
Reply text: high polyreactivity

Inquiry: Cool, now "QVQLVESGGGLVQAGGSLRLSCAASGRILRQYAMGWYRQAPGKERELVAAITSSGGSTYYADSVKGRFTNSRDNAKNTVYLQMNSLKPEDTAVYYCAARYYPSGYRKKMYYWGQGTQVTVSS"
Reply text: high polyreactivity

Inquiry: Cool, now "QFQLVESGGGLVQAGGSLSLSCAASGSTFSFNARGSYRQAPGKERELVAAITSGGSTYYADSVKGRFTISRDNAKNTVYLQMNSLKPEDTAVYYCAAAWAYGFGTRRYYWGQGTQVTVSS"
Reply text: high polyreactivity

Inquiry: Cool, now "QVQLVESGGGLVQAGGSLRLICAASGRIFWSNTMGWYRQAPGKERELVAAISGRGGSTYYADSVKGRFTISRDNAKNTVYLQMNSLKPEDTAVYYCAAKPTRSRKIYEYWGQGTQVTVSS"
Reply text: low polyreactivity

Others:
Inquiry: Please look up its polyreactivity (PSR sort gate): "QVQLVETGGGLVQAGGSLRLSCAASGFTFRRYTMGWYRQAPGKERELVAAISGRGGRTYYADSVKGRFTISRDNAKNTVDLQMNSLKPEDTAVYYCAADTPYCQSSKYDYWGQGNQVTVSS"
Reply text: high polyreactivity

Inquiry: Cool, now "QVQLVESVGGLVQAGGSLRLSCAASGSIFVKNAMGWYRQAPGKERELVAVITIRTATTYYADSVKGRFTISRDNAKNTVYLQMNSLKPEDTAVYYCAAAKRQRGYLQREYDYWGQGTQVTVSS"
Reply text: low polyreactivity

Inquiry: Cool, now "QVQLVESGGGLVQAGGSLRLSCAASGRTFPRYTMGWYRQAPGKERELVAASATGGSTYYADSVKGRFTISRDNAKNTVYLQMNSLKPEDTAVYYCAAYKLYPYYSTEYDYWGQGTQVTVSS"
Reply text: high polyreactivity

Inquiry: Cool, now "QVQLGESGGGLVQAGGSLRLSCAASGSTFYYYAMGWYRQAPGKERELVASINYSAGRTYYADSVKGRFTISRDNAKNTVYLQMNSLKPEDTAVYYCAAETPSGYYPQQYDYYWGQGTQVTVSS"
Reply text: high polyreactivity

Inquiry: Cool, now "QVQLVESGGGLVQAGGSLRLSCAASGSISQKYVMGWYRKAPGKERELVAAIRSTGNTYYADSVKGRFTISRDNAKNTVYLQMNSLKPEDTAVYYCAARLYVLRWYPYDYWGQGTQVTVSS"
Reply text: low polyreactivity

Inquiry: Cool, now "QVQLVESGGCLVQAGGRLRLSCAASGRIFRGYAMGWYRQAPGKERELVARITSGGRTYYADSVKGRFTISRDNAKNTVYLQMNSLKPEDTAVYYCAAPPSVRTRKAYYYWGQGTQVTVSS"
Reply text: high polyreactivity
